Target: GABA-B receptor (Homo sapiens, UniProt O75899+Q9UBS5)
Sequence (Q9UBS5 whole entry): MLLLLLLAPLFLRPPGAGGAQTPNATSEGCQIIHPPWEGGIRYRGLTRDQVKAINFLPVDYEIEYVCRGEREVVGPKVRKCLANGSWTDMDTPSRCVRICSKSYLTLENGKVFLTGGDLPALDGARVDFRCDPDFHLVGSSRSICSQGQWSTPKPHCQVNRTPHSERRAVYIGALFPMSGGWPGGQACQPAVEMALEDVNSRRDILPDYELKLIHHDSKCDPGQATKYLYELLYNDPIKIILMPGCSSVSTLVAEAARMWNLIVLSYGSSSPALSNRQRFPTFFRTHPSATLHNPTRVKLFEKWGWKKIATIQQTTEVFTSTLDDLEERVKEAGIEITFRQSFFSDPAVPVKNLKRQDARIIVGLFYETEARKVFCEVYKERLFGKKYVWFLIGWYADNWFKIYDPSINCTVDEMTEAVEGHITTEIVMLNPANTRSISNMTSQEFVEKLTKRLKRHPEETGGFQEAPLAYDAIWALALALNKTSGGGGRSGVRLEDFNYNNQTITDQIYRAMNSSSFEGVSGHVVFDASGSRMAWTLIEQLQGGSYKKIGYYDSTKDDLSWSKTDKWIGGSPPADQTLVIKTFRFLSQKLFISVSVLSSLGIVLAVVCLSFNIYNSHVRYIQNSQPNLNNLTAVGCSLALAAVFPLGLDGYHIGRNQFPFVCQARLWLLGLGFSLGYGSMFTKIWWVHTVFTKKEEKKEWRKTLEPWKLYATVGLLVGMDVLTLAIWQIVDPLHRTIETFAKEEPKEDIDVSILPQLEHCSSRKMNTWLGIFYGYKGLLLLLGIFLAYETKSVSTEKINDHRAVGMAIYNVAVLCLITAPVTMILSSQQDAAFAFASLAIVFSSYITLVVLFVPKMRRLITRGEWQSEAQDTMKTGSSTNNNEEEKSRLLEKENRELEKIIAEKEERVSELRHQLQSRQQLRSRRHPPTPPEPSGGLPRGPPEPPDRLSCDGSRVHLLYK
Sequence (O75899 whole entry): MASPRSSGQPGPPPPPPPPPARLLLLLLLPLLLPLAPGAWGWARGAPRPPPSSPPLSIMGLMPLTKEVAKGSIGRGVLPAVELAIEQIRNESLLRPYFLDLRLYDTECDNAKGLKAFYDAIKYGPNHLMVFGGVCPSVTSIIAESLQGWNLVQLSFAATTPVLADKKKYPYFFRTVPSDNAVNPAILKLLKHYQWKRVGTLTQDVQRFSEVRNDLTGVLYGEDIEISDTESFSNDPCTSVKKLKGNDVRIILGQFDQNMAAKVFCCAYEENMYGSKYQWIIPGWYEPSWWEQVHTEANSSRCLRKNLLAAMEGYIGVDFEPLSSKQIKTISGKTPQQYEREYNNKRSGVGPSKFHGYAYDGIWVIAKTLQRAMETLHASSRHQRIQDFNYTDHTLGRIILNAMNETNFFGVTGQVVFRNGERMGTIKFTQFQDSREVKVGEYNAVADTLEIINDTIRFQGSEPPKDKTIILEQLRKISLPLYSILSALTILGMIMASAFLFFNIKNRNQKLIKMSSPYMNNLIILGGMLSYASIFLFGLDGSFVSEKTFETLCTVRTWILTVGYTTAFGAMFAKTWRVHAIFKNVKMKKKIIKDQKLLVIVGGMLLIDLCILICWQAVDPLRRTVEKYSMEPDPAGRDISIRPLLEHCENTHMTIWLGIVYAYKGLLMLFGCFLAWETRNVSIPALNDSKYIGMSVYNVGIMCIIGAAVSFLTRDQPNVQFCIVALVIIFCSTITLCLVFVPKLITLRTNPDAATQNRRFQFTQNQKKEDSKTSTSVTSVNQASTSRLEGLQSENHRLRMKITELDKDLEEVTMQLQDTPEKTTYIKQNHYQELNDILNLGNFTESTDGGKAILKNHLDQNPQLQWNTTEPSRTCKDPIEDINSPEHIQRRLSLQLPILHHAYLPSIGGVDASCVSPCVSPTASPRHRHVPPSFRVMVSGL
Assay: Inhibition of [3H]baclofen binding to Gamma-aminobutyric acid type B receptor of cat cerebellum
Assay type: tissue-based, Felis catus
Conditions: target entry is the homologue from another species
property_measured: IC50 (µM)
// units = µM; emit number, no label

compound	assay_target	uom	IC50
NCC(C[PH](=O)O)c1ccc(F)cc1 (stereo not drawn)	GABA-B receptor (Homo sapiens, UniProt O75899+Q9UBS5)	µM	0.36
NCC(C[PH](=O)O)c1ccccc1 (stereo not drawn)	GABA-B receptor (Homo sapiens, UniProt O75899+Q9UBS5)	µM	0.88

Turning now to a further record.
Exam item: Returns the measured IC50 for the input compound. Input: NCC(C[PH](=O)O)c1ccc(Cl)cc1 (stereo not drawn)
Marked response: 0.039
